Overview of reported MIC across a group of molecules:
system: Pseudomonas aeruginosa ATCC 9027; test: ≥ marks a high value that may be exact or a test limit, other limits are often not marked, values filed in µg/mL are converted to µM
Please state the figure in µM; there is no need to write the unit.

[ask] MIC lookup needed for NCCCC[C@H](NC(=O)[C@H](Cc1c[nH]c2ccccc12)NC(=O)[C@H](Cc1c[nH]c2ccccc12)NC(=O)[C@H](CCCCN)NC(=O)[C@H](Cc1c[nH]c2ccccc12)NC(=O)[C@H](Cc1c[nH]c2ccccc12)NC(=O)[C@H](CCCN=C(N)N)NC(=O)[C@@H](N)Cc1c[nH]c2ccccc12)C(N)=O [WRWWKWWK] , thanks.
[reply] 23.5

Could you now look at the following molecule, please?
[ask] MIC lookup needed for NCC(=O)N[C@@H](Cc1c[nH]c2ccccc12)C(=O)N[C@@H](CCCN=C(N)N)C(=O)N[C@@H](Cc1c[nH]c2ccccc12)C(=O)N[C@@H](Cc1c[nH]c2ccccc12)C(=O)N[C@@H](Cc1c[nH]c2ccccc12)C(=O)N[C@@H](CCCN=C(N)N)C(=O)N[C@@H](Cc1c[nH]c2ccccc12)C(=O)NCC(N)=O [GWRWWWRWG] , thanks.
[reply] 64

----------
Overview of reported MIC across a group of compounds:
tested on: Staphylococcus aureus ATCC 29213
Please state the figure in µM; there is no need to write the unit.

Known MIC results, listed for orientation:
[ask] MIC lookup needed for CC(C)C[C@H](NC(=O)[C@H](C)NC(=O)CNC(=O)[C@H](CC(C)C)NC(=O)[C@@H](N)Cc1ccccc1)C(=O)N[C@@H](Cc1c[nH]c2ccccc12)C(=O)N[C@@H](CC(N)=O)C(=O)N[C@H](C(=O)N[C@@H](C)C(=O)N[C@@H](CCCCN)C(=O)N[C@@H](CO)C(=O)N[C@@H](Cc1ccc(O)cc1)C(=O)N[C@@H](Cc1ccccc1)C(N)=O)C(C)C , thanks.
[reply] 3.1

[ask] MIC lookup needed for CC(=O)N[C@@H](CC(C)C)C(=O)N[C@@H](CCCCN)C(=O)N[C@@H](CCCCN)C(=O)N[C@@H](CC(C)C)C(=O)N[C@@H](CC(C)C)C(=O)N[C@@H](CCCCN)C(=O)N[C@@H](CC(C)C)C(=O)N[C@@H](CC(C)C)C(=O)N[C@@H](CCCCN)C(=O)N[C@@H](CCCCN)C(=O)N[C@@H](CC(C)C)C(=O)N[C@@H](CC(C)C)C(=O)N[C@@H](CCCCN)C(=O)N[C@@H](CC(C)C)C(N)=O , thanks.
[reply] 14.1

Could you now look at the following compound, please?
[ask] MIC lookup needed for CC[C@H](C)[C@H](NC(=O)[C@H](CCCCN)NC(=O)[C@H](CCC(=O)O)NC(=O)[C@H](Cc1c[nH]c2ccccc12)NC(=O)[C@H](Cc1ccccc1)NC(=O)[C@H](CCCCN)NC(=O)CNC(=O)[C@H](CC(C)C)NC(=O)[C@H](C)N)C(=O)N[C@@H](CCCCN)C(=O)N[C@@H](CO)C(=O)N[C@@H](CC(C)C)C(=O)N[C@@H](Cc1ccccc1)C(N)=O , thanks.
[reply] 3.13

----------
Overview of reported MIC across a group of molecules:
tested on: Pseudomonas aeruginosa H103; test: ≥ marks a high value that may be exact or a test limit, other limits are often not marked, values filed in µg/mL are converted to µM
Please state the figure in µM; there is no need to write the unit.

Known MIC results, listed for orientation:
[ask] Test system Pseudomonas aeruginosa H103; read-out MIC; what value for CC[C@H](C)[C@H](NC(=O)[C@H](Cc1c[nH]c2ccccc12)NC(=O)[C@H](CCCN=C(N)N)NC(=O)[C@H](Cc1c[nH]c2ccccc12)NC(=O)[C@H](Cc1c[nH]c2ccccc12)NC(=O)[C@H](CCCN=C(N)N)NC(=O)[C@H](CCCCN)NC(=O)[C@H](Cc1c[nH]c2ccccc12)NC(=O)[C@@H](N)CCCN=C(N)N)C(=O)O ?
[reply] 2.72

[ask] Test system Pseudomonas aeruginosa H103; read-out MIC; what value for CC[C@H](C)[C@H](NC(=O)[C@H](CCCN=C(N)N)NC(=O)[C@@H](NC(=O)[C@H](Cc1c[nH]c2ccccc12)NC(=O)[C@H](CCCN=C(N)N)NC(=O)[C@H](CCCN=C(N)N)NC(=O)[C@@H](N)CC(C)C)[C@@H](C)CC)C(=O)N[C@@H](CCCN=C(N)N)C(=O)N[C@@H](Cc1c[nH]c2ccccc12)C(=O)O ?
[reply] 21.4

[ask] Test system Pseudomonas aeruginosa H103; read-out MIC; what value for CC[C@H](C)[C@H](NC(=O)[C@H](CCCN=C(N)N)NC(=O)[C@H](Cc1c[nH]c2ccccc12)NC(=O)[C@H](CCCN=C(N)N)NC(=O)[C@@H](N)CCCN=C(N)N)C(=O)N[C@H](C(=O)N[C@H](C(=O)N[C@H](C(=O)N[C@@H](CCCN=C(N)N)C(=O)N[C@H](C(=O)N[C@@H](CCCN=C(N)N)C(=O)N[C@@H](CCCN=C(N)N)C(=O)O)C(C)C)[C@@H](C)CC)C(C)C)C(C)C ?
[reply] 1.2

Could you now look at the following molecule, please?
[ask] Test system Pseudomonas aeruginosa H103; read-out MIC; what value for CC[C@H](C)[C@H](NC(=O)[C@H](CCCN=C(N)N)NC(=O)[C@H](CC(C)C)NC(=O)[C@H](CCCN=C(N)N)NC(=O)[C@@H](N)C(C)C)C(=O)N[C@@H](CCCN=C(N)N)C(=O)N[C@H](C(=O)N[C@@H](CCCN=C(N)N)C(=O)N[C@H](C(=O)N[C@H](C(=O)N[C@@H](CCCN=C(N)N)C(=O)N[C@@H](CCCCN)C(=O)O)[C@@H](C)CC)C(C)C)C(C)C ?
[reply] 2
